- measurement.target: EGFR L858R/C797S (Homo sapiens, UniProt P00533, C797S/L858R)
- Sequence (P00533 25-1210 C797S/L858R): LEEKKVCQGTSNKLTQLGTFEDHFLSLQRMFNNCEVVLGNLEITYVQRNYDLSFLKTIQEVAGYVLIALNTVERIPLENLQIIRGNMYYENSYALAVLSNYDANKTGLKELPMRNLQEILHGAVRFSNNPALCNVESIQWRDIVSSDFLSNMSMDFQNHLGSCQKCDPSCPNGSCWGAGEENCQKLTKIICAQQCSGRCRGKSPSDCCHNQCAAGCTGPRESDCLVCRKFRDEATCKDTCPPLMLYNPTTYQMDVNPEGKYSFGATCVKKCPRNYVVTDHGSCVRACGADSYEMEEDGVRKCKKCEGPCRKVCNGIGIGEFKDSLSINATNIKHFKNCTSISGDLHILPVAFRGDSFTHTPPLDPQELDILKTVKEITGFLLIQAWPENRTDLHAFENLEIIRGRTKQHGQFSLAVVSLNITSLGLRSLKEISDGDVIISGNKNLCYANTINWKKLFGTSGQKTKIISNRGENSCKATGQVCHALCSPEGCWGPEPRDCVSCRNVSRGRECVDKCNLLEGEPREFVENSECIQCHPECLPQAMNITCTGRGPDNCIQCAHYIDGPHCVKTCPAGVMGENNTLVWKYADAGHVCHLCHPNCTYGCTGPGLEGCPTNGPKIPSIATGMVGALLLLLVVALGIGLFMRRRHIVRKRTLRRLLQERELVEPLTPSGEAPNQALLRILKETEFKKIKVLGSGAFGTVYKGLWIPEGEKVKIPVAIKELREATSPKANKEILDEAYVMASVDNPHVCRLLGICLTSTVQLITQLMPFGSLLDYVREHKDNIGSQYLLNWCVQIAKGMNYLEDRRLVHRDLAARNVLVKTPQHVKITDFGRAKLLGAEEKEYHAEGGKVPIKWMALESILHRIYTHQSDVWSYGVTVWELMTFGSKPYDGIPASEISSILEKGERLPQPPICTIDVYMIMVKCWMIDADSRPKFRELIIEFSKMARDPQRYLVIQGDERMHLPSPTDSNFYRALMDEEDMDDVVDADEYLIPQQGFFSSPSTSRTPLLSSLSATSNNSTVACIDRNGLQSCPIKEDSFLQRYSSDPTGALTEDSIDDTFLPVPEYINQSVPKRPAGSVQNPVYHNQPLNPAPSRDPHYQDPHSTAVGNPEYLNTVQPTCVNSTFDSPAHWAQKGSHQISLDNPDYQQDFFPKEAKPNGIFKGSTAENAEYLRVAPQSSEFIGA
- measurement.protocol: Biochemical EGFR kinase assay (Lance Ultra TR-FRET), double mutant L858R/C797S
- settings: IC50 L858R/C797S (nM) 100 μM ATP, 100 μM ATP
metric.name: IC50 (nM)

smiles	metric.name	readout.units	data.value
O=S(=O)(C1CC1)n1cc(-c2nccc(Nc3cc(N[C@H]4CC[C@@H](NCCF)CC4)c(-c4ccc(CO)cn4)cn3)n2)cn1	IC50	nM	11.6
CN(C)Cc1ccc(-c2cnc(Nc3ccnc(-c4cnn(S(=O)(=O)C5CC5)c4)n3)cc2N[C@H]2CC[C@@](C)(O)CC2)nc1	IC50	nM	0.8

I = COc1ccc(-c2cnc(Nc3ccnc(-c4cnn(S(=O)(=O)C5CC5)c4)n3)cc2N[C@H]2CC[C@@](C)(O)CC2)nn1
II = CC(C)(O)[C@H]1CC[C@@H](Nc2cc(Nc3ccnc(-c4cnn(S(=O)(=O)C5CC5)c4)n3)ncc2-c2ccc(CO)cn2)CC1
III = Cc1cc(-c2cnc(Nc3ccnc(-c4cnn(S(=O)(=O)C5CC5)c4)n3)cc2N[C@H]2CC[C@@](C)(O)CC2)nnc1C
IV = C[C@]1(O)CC[C@@H](Nc2cc(Nc3ccnc(-c4cnn(S(=O)(=O)C5CC5)c4)n3)ncc2-c2ccc(N3CCCCC3)cn2)CC1
Q: Hey, quick one: sort these by IC50, largest value first please. Lab note: record answer as labels in requested order.
Result: IV, II, III, I

====

- measurement.target: EGFR L858R/T790M/C797S (Homo sapiens, UniProt P00533, C797S/L858R/T790M)
- Sequence (P00533 25-1210 T790M/C797S/L858R): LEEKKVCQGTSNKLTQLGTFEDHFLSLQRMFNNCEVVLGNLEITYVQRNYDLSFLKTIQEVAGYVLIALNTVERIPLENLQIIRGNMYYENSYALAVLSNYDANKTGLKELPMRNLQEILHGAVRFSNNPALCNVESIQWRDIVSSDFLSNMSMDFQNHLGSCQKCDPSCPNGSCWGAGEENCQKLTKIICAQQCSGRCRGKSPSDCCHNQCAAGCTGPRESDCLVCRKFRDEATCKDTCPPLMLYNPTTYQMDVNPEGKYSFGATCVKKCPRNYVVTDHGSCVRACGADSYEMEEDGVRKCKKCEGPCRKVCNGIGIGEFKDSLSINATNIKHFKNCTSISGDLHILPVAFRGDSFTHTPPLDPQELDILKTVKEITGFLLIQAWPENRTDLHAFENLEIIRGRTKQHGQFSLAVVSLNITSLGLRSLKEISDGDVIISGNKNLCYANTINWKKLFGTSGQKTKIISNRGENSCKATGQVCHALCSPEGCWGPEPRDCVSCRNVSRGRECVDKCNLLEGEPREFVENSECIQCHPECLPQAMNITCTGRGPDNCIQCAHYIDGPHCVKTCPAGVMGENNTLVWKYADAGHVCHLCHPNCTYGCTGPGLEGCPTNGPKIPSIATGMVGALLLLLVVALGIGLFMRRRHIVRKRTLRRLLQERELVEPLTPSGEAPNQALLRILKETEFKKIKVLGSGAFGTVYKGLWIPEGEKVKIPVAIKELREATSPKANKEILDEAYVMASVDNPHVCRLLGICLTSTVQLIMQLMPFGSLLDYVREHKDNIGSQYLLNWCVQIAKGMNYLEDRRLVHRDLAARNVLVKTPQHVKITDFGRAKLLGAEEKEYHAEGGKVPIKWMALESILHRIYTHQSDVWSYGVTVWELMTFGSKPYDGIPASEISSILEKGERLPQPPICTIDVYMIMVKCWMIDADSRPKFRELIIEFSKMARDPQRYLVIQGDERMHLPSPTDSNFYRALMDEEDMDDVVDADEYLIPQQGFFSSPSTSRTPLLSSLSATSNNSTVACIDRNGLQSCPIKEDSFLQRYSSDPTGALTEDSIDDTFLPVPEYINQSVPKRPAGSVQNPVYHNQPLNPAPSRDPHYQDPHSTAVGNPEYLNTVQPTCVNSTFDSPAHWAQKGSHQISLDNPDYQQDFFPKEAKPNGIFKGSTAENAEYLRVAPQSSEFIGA
- measurement.protocol: Biochemical EGFR kinase assay (Lance Ultra TR-FRET), triple mutant L858R/T790M/C797S
- settings: Km ATP; read-out: IC50 L858R/T790M/C797S (nM) Km ATP
metric.name: IC50 (nM)

Below are worked cases with known answers.
molecule	measurement.target	IC50 / nM
Cc1ccnc(-c2cnc(Nc3ccnc(-c4cnn(S(=O)(=O)C5CC5)c4)n3)cc2N[C@H]2CC[C@@](C)(O)CC2)c1 [Example 12]	EGFR L858R/T790M/C797S (Homo sapiens, UniProt P00533, C797S/L858R/T790M)	0.2
CN1CCN(Cc2ccc(-c3cnc(Nc4ccnc(-c5cnn(S(=O)(=O)C6CC6)c5)n4)cc3N[C@H]3CC[C@@](C)(O)CC3)nc2)CC1 [Example 9]	EGFR L858R/T790M/C797S (Homo sapiens, UniProt P00533, C797S/L858R/T790M)	0.1

a = C[C@]1(O)CC[C@@H](Nc2cc(Nc3ccnc(-c4cnn(S(=O)(=O)C5CC5)c4)n3)ncc2-c2ccc(N3CCC(F)(F)CC3)nn2)CC1 [Example 68]
b = C[C@]1(O)CC[C@@H](Nc2cc(Nc3ccnc(-c4cnn(S(=O)(=O)C5CC5)c4)n3)ncc2-c2ccc(C(F)(F)F)nn2)CC1 [Example 51]
Q: Select one: a or b . Criterion: greater recorded IC50. Selection: enter the item's label.
Result: a
(a: 0.8 nM, b: 0.3 nM)

====

- measurement.target: EGFR del19/T790M/C797S (Homo sapiens, UniProt P00533, C797S/DEL746-750/T790M)
- Sequence (P00533 with tags, fused parts or gaps DEL746-750/T790M/C797S): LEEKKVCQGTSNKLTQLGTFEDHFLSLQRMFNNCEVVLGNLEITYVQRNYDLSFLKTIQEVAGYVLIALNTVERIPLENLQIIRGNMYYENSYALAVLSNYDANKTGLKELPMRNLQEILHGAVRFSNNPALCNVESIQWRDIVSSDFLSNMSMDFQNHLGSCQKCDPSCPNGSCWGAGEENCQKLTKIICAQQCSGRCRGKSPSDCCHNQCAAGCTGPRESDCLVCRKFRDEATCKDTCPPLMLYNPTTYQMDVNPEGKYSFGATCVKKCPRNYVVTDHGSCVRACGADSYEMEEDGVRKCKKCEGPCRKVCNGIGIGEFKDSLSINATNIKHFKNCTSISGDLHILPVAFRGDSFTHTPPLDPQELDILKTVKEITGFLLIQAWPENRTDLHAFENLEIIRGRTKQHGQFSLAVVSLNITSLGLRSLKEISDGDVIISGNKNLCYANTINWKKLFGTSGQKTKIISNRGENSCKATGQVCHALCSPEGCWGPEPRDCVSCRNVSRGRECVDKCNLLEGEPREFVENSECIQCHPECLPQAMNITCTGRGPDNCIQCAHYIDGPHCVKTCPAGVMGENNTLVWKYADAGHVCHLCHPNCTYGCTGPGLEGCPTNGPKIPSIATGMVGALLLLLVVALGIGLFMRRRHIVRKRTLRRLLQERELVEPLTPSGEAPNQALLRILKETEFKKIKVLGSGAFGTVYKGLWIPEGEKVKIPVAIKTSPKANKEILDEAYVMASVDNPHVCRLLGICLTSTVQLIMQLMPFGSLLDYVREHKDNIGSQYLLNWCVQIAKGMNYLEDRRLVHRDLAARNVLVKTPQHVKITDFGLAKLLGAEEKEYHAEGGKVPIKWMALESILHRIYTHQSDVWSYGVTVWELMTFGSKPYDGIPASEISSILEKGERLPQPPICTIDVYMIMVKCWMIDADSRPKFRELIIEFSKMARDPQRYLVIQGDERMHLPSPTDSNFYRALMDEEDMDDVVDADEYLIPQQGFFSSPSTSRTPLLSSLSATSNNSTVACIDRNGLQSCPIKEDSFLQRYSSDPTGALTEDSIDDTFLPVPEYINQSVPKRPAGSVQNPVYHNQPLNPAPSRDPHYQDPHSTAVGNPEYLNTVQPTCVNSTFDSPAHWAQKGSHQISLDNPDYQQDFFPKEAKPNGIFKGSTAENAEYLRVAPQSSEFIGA
- measurement.protocol: Biochemical EGFR kinase assay (Lance Ultra TR-FRET), triple mutant del19/T790M/C797S
- settings: IC50 del19/T790M/C797S (nM) 100 μM ATP, 100 μM ATP
metric.name: IC50 (nM)

compound	IC50, nM
CN(C)C[C@H]1CC[C@@H](Nc2cc(Nc3ccnc(-c4cnn(S(=O)(=O)C5CC5)c4)n3)ncc2-c2cnc(N3CCC(F)(F)CC3)cn2)CC1 [Example 74]	2.2

1 = CC(C)(O)c1cnc(-c2cnc(Nc3ccnc(-c4cnn(S(=O)(=O)C5CC5)c4)n3)cc2N[C@H]2CC[C@@H](C(C)(C)O)CC2)cn1 [Example 120]
2 = CN1CCN(c2ccnc(-c3cnc(Nc4ccnc(-c5cnn(S(=O)(=O)C6CC6)c5)n4)cc3N[C@H]3CC[C@@](C)(O)CC3)c2)CC1 [Example 58]
Q: When 1 and 2 are compared, which has the higher number for IC50? Your answer should be the label of the entry you select.
Result: 2

====

- measurement.target: EGFR L858R/C797S (Homo sapiens, UniProt P00533, C797S/L858R)
- measurement.protocol: Biochemical EGFR kinase assay (Lance Ultra TR-FRET), double mutant L858R/C797S
- settings: Km ATP; read-out: IC50 L858R/C797S (nM) Km ATP
- Procedure: Biochemical EGFR kinase assays were conducted using Lance Ultra time-resolved fluorescence resonance energy transfer (TR-FRET) technology from Perkin-Elmer. […] Each kinase reactions were incubated at room temperature for 1 hour and then stopped by the addition of 4 μL of stop solution (10 mM EDTA). […] After 60 minutes incubation at room temperature the LANCE signal was measured on an EnVision Multilabel Reader (Perkin-Elmer). […]
metric.name: IC50 (nM)

Look over these answered cases.
compound	metric.name	data.value
CN1CCC(Oc2ccc(-c3cnc(Nc4ccnc(-c5cnn(CC(F)F)c5)n4)cc3NC3CCCC(F)C3)nc2)CC1 (stereo not shown)	IC50	0.8
FC(F)Cn1cc(-c2nccc(Nc3cc(N[C@H]4CC[C@@H](F)CC4)c(-c4ccc(CN5CCOCC5)cn4)cn3)n2)cn1	IC50	6.4
CN(C)c1cnc(-c2cnc(Nc3ccnc(-c4cnn(S(=O)(=O)C5CC5)c4)n3)cc2N[C@H]2CC[C@@](C)(O)CC2)nc1	IC50	8.7
C[C@]1(O)CC[C@@H](Nc2cc(Nc3ccnc(-c4cnn(S(=O)(=O)C5CC5)c4)n3)ncc2-c2ccc(C#N)cn2)CC1	IC50	0.6

A = CN1CCC(Oc2ccc(-c3cnc(Nc4ccnc(-c5cnn(CC(F)F)c5)n4)cc3N[C@H]3CC[C@@H](F)CC3)nc2)CC1
B = O=S(=O)(C1CC1)n1cc(-c2nccc(Nc3cc(N[C@H]4CC[C@@H](CO)CC4)c(-c4ccc(CO)cn4)cn3)n2)cn1
C = CC(O)c1cccc(-c2cnc(Nc3ccnc(-c4cnn(S(=O)(=O)C5CC5)c4)n3)cc2NC2CCC(C)(O)CC2)n1 (stereo not shown)
Q: Please give the order of these compounds when sorted by IC50, largest value leading. Sort and list the labels as requested.
Result: A, C, B

====

- measurement.target: EGFR del19/C797S (Homo sapiens, UniProt P00533, C797S/DEL746-750)
- Sequence (P00533 with tags, fused parts or gaps DEL746-750/C797S): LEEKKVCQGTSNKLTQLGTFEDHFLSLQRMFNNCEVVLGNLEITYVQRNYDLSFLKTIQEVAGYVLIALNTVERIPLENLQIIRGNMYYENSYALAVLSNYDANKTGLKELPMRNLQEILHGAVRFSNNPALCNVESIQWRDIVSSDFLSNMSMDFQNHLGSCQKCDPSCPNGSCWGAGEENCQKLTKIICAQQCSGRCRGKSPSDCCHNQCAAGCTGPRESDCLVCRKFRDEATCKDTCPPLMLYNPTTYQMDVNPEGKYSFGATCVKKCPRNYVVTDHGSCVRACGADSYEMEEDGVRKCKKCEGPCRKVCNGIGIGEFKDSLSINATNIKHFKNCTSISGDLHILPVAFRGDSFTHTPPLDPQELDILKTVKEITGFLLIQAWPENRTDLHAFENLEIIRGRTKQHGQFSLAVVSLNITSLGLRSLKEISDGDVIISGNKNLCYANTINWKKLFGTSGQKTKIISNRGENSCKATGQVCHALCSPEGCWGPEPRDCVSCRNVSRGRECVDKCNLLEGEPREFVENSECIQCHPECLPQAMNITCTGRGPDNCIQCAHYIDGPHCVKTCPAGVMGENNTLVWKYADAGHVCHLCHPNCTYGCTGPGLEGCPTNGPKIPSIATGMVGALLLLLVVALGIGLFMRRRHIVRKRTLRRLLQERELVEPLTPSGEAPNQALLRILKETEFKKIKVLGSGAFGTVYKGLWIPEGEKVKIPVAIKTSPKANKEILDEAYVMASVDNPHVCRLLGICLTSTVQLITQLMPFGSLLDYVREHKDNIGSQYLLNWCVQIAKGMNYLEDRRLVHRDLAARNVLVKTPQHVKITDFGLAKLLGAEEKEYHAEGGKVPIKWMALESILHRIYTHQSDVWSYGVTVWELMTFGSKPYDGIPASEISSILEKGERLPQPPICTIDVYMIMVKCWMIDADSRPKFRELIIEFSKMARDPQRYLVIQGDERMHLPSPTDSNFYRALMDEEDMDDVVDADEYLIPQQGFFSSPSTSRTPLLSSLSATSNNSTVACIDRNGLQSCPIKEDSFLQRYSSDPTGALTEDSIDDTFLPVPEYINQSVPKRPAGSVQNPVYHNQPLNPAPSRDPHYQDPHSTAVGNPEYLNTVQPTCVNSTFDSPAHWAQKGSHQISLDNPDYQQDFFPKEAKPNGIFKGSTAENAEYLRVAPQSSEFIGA
- measurement.protocol: Biochemical EGFR kinase assay (Lance Ultra TR-FRET), double mutant del19/C797S
- settings: ATP at Km; read-out: IC50 del19/C797S, Km ATP
metric.name: IC50 (pM)

a = CC(C)(O)[C@H]1CC[C@@H](Nc2cc(Nc3ccnc(-c4cnn(S(=O)(=O)C5CC5)c4)n3)ncc2-c2ccc(S(C)(=O)=O)cn2)CC1 [Example 160]
b = CC(C)(O)[C@H]1CC[C@@H](Nc2cc(Nc3ccnc(-c4cnn(S(=O)(=O)C5CC5)c4)n3)ncc2-c2cccc(F)n2)CC1 [Example 163]
c = CN(C)CCNc1ccnc(-c2cnc(Nc3ccnc(-c4cnn(S(=O)(=O)C5CC5)c4)n3)cc2N[C@H]2CC[C@@](C)(O)CC2)c1 [Example 276]
Q: // sort entries: IC50, high to low Enter labels, ranked according to the request.
Result: b, a, c
(b: 2600 pM, a: 500 pM, c: 300 pM)

====

- measurement.target: EGFR L858R/C797S (Homo sapiens, UniProt P00533, C797S/L858R)
- measurement.protocol: Biochemical EGFR kinase assay (Lance Ultra TR-FRET), double mutant L858R/C797S
- settings: IC50 L858R/C797S, 100 μM ATP
metric.name: IC50 (nM)

Illustrative cases are given below, each with its answer.
molecule	IC50, nM
CN1CCN(C(=O)c2ccc(-c3cnc(Nc4ccnc(-c5cnn(S(=O)(=O)C6CC6)c5)n4)cc3N[C@H]3CC[C@@H](C(C)(C)O)CC3)nc2)CC1 [Example 203]	0.8
C[C@]1(O)CC[C@@H](Nc2cc(Nc3ccnc(-c4cnn(S(=O)(=O)C5CC5)c4)n3)ncc2-c2cccc(F)n2)CC1 [Example 271]	7.9
CN1CCN(S(=O)(=O)c2ccc(-c3cnc(Nc4ccnc(-c5cnn(S(=O)(=O)C6CC6)c5)n4)cc3N[C@H]3CC[C@@H](CO)CC3)nc2)CC1 [Example 189]	7.9
O=S(=O)(C1CC1)n1cc(-c2nccc(Nc3cc(N[C@H]4CC[C@@H](CO)CC4)c(-c4ccnc(N[C@H]5CC[C@@H](CO)CC5)n4)cn3)n2)cn1 [Example 192]	7.8
C[C@]1(O)CC[C@@H](Nc2cc(Nc3ccnc(-c4cnn(S(=O)(=O)C5CC5)c4)n3)ncc2-c2ccc(OC(F)(F)F)cn2)CC1 [Example 194]	43.7

A = CC1(O)CCC(Nc2cc(Nc3ccnc(-c4cnn(S(=O)(=O)C5CC5)c4)n3)ncc2-c2ccc(C(O)C(F)(F)F)cn2)CC1 (stereo not drawn) [Example 226]
B = CN(C)C[C@H]1CC[C@@H](Nc2cc(Nc3ccnc(-c4cnn(S(=O)(=O)C5CC5)c4)n3)ncc2-c2cccc(F)n2)CC1 [Example 274]
C = CC(C)(O)[C@H]1CC[C@@H](Nc2cc(Nc3ccnc(-c4cnn(S(=O)(=O)C5CC5)c4)n3)ncc2-c2ccc(S(=O)(=O)N3CCOCC3)cn2)CC1 [Example 184]
Q: Arrange these molecules by their IC50, starting with the largest number. Order the labels as requested and list them.
Result: C, A, B
(C: 12.9 nM, A: 8.4 nM, B: 0.4 nM)

1 = C[C@]1(O)CC[C@@H](Nc2cc(Nc3ccnc(-c4cnn(S(=O)(=O)C5CC5)c4)n3)ncc2-c2cnc(F)cn2)CC1 [Example 185]
2 = O=S(=O)(C1CC1)n1cc(-c2nccc(Nc3cc(N[C@H]4CCC[C@H](CO)C4)c(-c4ccc(CC(F)(F)F)cn4)cn3)n2)cn1 [Example 222]
3 = C[C@]1(O)CC[C@@H](Nc2cc(Nc3ccnc(-c4cnn(S(=O)(=O)C5CC5)c4)n3)ncc2-c2cccc(NCCO)n2)CC1 [Example 285]
4 = CC1(O)CCC(Nc2cc(Nc3ccnc(-c4cnn(S(=O)(=O)C5CC5)c4)n3)ncc2-c2cc(S(C)(=O)=O)ccn2)CC1 (stereo not drawn) [Example 198]
Q: Rank by IC50 (largest to smallest). Present the labels in the sequence the task asks for.
Result: 2, 1, 3, 4
(2: 296 nM, 1: 32.1 nM, 3: 14.1 nM, 4: 2.9 nM)
